- Target of assay: T1, EsCas13d, nuclease-dead (Eubacterium siraeum, UniProt B0MS50, R295A;H300A;R849A;H854A)
- T1 sequence: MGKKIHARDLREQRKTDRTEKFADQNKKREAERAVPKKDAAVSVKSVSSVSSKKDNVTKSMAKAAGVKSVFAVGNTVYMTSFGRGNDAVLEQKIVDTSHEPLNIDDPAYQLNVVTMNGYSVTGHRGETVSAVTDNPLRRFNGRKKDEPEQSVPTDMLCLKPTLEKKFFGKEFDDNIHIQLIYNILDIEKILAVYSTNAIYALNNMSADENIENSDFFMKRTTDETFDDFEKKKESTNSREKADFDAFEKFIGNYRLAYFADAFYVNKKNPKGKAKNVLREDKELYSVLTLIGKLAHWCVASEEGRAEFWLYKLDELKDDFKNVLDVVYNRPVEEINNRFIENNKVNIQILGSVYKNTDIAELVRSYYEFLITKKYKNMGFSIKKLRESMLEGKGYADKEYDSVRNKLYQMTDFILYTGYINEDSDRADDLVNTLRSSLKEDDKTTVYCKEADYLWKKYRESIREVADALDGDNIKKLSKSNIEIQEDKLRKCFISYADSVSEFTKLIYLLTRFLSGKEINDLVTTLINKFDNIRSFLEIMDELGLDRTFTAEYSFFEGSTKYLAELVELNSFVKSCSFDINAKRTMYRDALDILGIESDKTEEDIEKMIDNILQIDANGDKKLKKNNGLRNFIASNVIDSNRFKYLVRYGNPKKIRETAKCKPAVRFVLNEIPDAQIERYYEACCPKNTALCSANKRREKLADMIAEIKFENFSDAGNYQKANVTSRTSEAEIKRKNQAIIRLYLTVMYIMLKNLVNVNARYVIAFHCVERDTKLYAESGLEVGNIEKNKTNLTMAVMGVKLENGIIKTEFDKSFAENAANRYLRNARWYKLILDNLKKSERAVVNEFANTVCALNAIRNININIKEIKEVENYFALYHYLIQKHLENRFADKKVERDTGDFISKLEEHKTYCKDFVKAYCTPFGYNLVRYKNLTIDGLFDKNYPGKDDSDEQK
- Protocol description: crRNA (strand 1, pre-loaded); Mg2+; 40 mM Tris-HCl pH 7.5, 150 mM NaCl, 6 mM MgCl2, 1 mM DTT, 0.1% Tween-20, 0.2 mg/ml BSA; 25 C; 10 min per concentration, then washed
- Measurement parameters: tags: His6-TwinStrep-SUMO cleaved; N-terminal SNAP kept (SNAP-Surface 488); label: 3' end held by stalled T7 RNA polymerase
Observation type: Kd

Ask | Give its Kd value. Item: target 1 MT 5'PFS AGA 3'PFS AGC (mixed) RNA 1: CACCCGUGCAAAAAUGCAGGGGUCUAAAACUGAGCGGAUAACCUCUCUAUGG RNA 2: GGGAAUGGAUCCACAUCUACGAAUUCAGACCAUAGAGAGGUUAUCCGCUCAAGCAGAUCGGAAGAGCACACGU
Reply | ~42.5 nM
